Quick reference for combination Emax among some compounds
test system: KYSE-140 (Esophageal Squamous Cell Carcinoma); assay: combination Emax (second highest fraction inhibited in the dose matrix, 72 h); higher = more inhibition; extreme values may be limits of the assay

COMPOUND	combination Emax
CN(CCO)CC[C@H](CSc1ccccc1)Nc1ccc(S(=O)(=O)NC(=O)c2ccc(N3CCC([C@@H](O)c4ccccc4-c4ccc(Cl)cc4)CC3)cc2)cc1S(=O)(=O)C(F)(F)F [AZD4320] + C[C@@H]1COCCN1C2=NC(=NC(=C2)C3(CC3)[S@](=N)(=O)C)C4=C5C=CNC5=NC=C4 [AZD6738] (first compound max 1 µM, 7x7, partner max 10 µM)	0.878
COc1cccc2c1C(=O)c1c(O)c3c(c(O)c1C2=O)C[C@@](O)(C(=O)CO)C[C@@H]3O[C@H]1C[C@H](N)[C@H](O)[C@H](C)O1 [Doxorubicin] + Cc1cc2ncnn2cc1Nc1ncc2c(n1)n(C1CCOCC1)c(=O)n2C [AZD7648] (first compound max 1 µM, 7x7, partner max 10 µM)	0.442
COc1cccc(OCCCN)c1-c1cc(Nc2cnc(C#N)cn2)n[nH]1 [Prexasertib] + CCc1c2c(nc3ccc(O)cc13)-c1cc3c(c(=O)n1C2)COC(=O)[C@]3(O)CC [SN-38] (first compound max 1 µM, 7x7, partner max 0.3 µM)	0.945
CN(CCO)CC[C@H](CSc1ccccc1)Nc1ccc(S(=O)(=O)NC(=O)c2ccc(N3CCC([C@@H](O)c4ccccc4-c4ccc(Cl)cc4)CC3)cc2)cc1S(=O)(=O)C(F)(F)F [AZD4320] + CCN(CCO)CCCOc1ccc2c(Nc3cc(CC(=O)Nc4cccc(F)c4)[nH]n3)ncnc2c1 [AZD2811] (first compound max 1 µM, 7x7, partner max 1 µM)	0.334
NC1(C(=O)N[C@@H](CCO)c2ccc(Cl)cc2)CCN(c2ncnc3[nH]ccc23)CC1 [Capivasertib] + CCN(CCO)CCCOc1ccc2c(Nc3cc(CC(=O)Nc4cccc(F)c4)[nH]n3)ncnc2c1 [AZD2811] (first compound max 10 µM, 7x7, partner max 1 µM)	0.829
CC1(C)CCC(CN2CCN(c3ccc(C(=O)NS(=O)(=O)c4ccc(NCC5CCOCC5)c([N+](=O)[O-])c4)c(Oc4cnc5[nH]ccc5c4)c3)CC2)=C(c2ccc(Cl)cc2)C1 [Venetoclax] + C1CN(CCC1(C(=O)N[C@@H](CCO)C2=CC=C(C=C2)Cl)N)C3=NC=NC4=C3C=CN4 [Capivasertib] (first compound max 1 µM, 7x7, partner max 3 µM)	0.669
